B1: TPR t1 (parent)
chain: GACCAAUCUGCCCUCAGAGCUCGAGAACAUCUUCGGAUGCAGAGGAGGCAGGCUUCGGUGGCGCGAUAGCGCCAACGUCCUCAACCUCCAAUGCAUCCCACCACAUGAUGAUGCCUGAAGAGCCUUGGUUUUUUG

Variants of: B1
Test: polymerase ribozyme fitness, log enrichment relative to wild type (log ratio); higher = more active; in vitro selection for triplet polymerase activity
Parameter: polymerase ribozyme fitness (log ratio)
Answers are plain numbers.

Here are 2 variants together with their reported answers.
- Mutation Spec: "G42A C49U C56U U130G"
  Parameter: "polymerase ribozyme fitness (log ratio)"
  Measured: -3.07
- Mutation Spec: "G39C C114A"
  Parameter: "polymerase ribozyme fitness (log ratio)"
  Measured: -1.94

Now consider the entry below.
## Task Given the entry C101A A105C A118U , report its measured polymerase ribozyme fitness (log ratio).
## Result -4.79

Reference for the values: the RNAGym collection of RNA variant scans (doi:10.1073/pnas.2313332121)
